Hello, the source for this data is patent US20090022728A1, in case you need it.

- Measured on: T1, biotinylated Aβ1-40 peptide (biotinylated (N-biotinylated in Example 7))
- T1 construct: captured on streptavidin (SA) chip; also called Biotinylated Aβ peptide 1-40; Aβ1-40 on SA chip
- Method notes: SPR, Fab over Aβ1-40 on SA chip; kon may be assumed = 9TL (footnote 2)
Reported kon by item:
Hi! Could you send only the number? It should be in M⁻¹ s⁻¹, unit omitted.

### Prompt Reported kon, binder 9TL variant M39 Fab (Fab, V domains shown, Fab; human IgG2 CH1 and kappa CL) VH: QVQLVQSGAEVKKPGASVKVSCKASGYYTEAYYIHWVRQAPGQGLEWMGRIDPATGNTKYAPRLQDRVTMTRDTSTSTVYMELSSLRSEDTAVYYCASLYSSPVYWGQGTTVTVSS VL: DVVMTQSPLSLPVTLGQPASISCKSSQSLLYSDAKTYLNWFQQRPGQSPRRLIYQISRLDPGVPDRFSGSGSGTDFTLKISRVEAEDVGVYYCLQGTHYPVLFGQGTRLEIKR : ____
### Response 318000

### Prompt Reported kon, binder 9TL variant W8 Fab (Fab, V domains shown, Fab; human IgG2 CH1 and kappa CL) VH: QVQLVQSGAEVKKPGASVKVSCKASGYYTEAYYIHWVRQAPGQGLEWMGRIDPATGNTKYAPRLQDRVTMTRDTSTSTVYMELSSLRSEDTAVYYCASLYSLPVYWGQGTTVTVSS VL: DVVMTQSPLSLPVTLGQPASISCKSSQSLLHSDSATYLNWFQQRPGQSPRRLIYQISRLDPGVPDRFSGSGSGTDFTLKISRVEAEDVGVYYCLQGTHYPVTFGQGTRLEIKR : ____
### Response 318000

### Prompt Reported kon, binder 9TL variant M23 Fab (Fab, V domains shown, Fab; human IgG2 CH1 and kappa CL) VH: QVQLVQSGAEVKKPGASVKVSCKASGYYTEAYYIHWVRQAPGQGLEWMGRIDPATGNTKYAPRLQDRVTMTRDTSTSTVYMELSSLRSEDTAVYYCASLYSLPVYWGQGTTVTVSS VL: DVVMTQSPLSLPVTLGQPASISCKSSQSLLYSDAKTYLNWFQQRPGQSPRRLIYQISRLDPGVPDRFSGSGSGTDFTLKISRVEAEDVGVYYCLQGTHYPKLFGQGTRLEIKR : ____
### Response 318000
